target: HLA-A*02:19; assay: IEDB peptide-MHC binding, purified MHC/direct/fluorescence; filed as Kd, often an IC50 or EC50 that approximates it; bounds were set here for any values at or beyond the usual limits of such assays; details: source organism: Zaire ebolavirus
pKd: −log10 of the molar value.
pKd for assorted sequences

- seq_string: "GIVSSMHYK"
  pKd: "≤ 4.70"
- seq_string: "DRLASTVIY"
  pKd: "≤ 4.70"
- seq_string: "AENCYNLEI"
  pKd: "≤ 4.70"

----------
target: HLA-A*11:01; assay: IEDB peptide-MHC binding, purified MHC/competitive/radioactivity; filed as Kd, often an IC50 or EC50 that approximates it; bounds were set here for any values at or beyond the usual limits of such assays; conditions: source organism: Mammarenavirus whitewaterense
measured_parameter: Kd

- seq_string: "SLLTNDTTWI"
  meas_value: "≥ 69.7 µM"

Entry source: the Immune Epitope Database (IEDB)
